Multi-source literature compilation: IC50 on UniProtKB O15054.

### Prompt Name the recorded IC50 for `CON=Cc1ccnc(CNCCCN(C)C)c1` .
### Response > 2.5 µM

### Prompt Name the recorded IC50 for `CN(C)C/C=C/CNCc1cc(/C=N/C2CC2)ccn1` .
### Response > 2.5 µM

### Prompt Name the recorded IC50 for CCCCN1CCCC1CCNCc1cc(C(=O)O)ccn1 (stereo not shown) .
### Response ≥ 1 µM

### Prompt Name the recorded IC50 for `CN(C)CCNCc1cc(C=O)ccn1` .
### Response > 2.5 µM

### Prompt Name the recorded IC50 for `CCN(CC)CCCCNC(=O)CNCc1cc(/C=N/C2CC2)ccn1` .
### Response > 2.5 µM

### Prompt Name the recorded IC50 for `COc1ccc2c(c1C)CCC[C@H]2CNc1cnccc1C(=O)O` .
### Response 0.1 to 1 µM

### Prompt Name the recorded IC50 for `CCCNCc1cc(CNC2CC2)ccn1` .
### Response > 2.5 µM

### Prompt Name the recorded IC50 for `CN(C)c1ccc(N(C)c2ccc3c(c2)CCC[C@H]3CNc2cnccc2C(=O)O)cc1` .
### Response 1 to 10 µM

### Prompt Name the recorded IC50 for `O=C(O)c1ccncc1NC[C@H]1CCOc2cc(-c3ccccc3Cl)ccc21` .
### Response 0.1 to 1 µM

### Prompt Name the recorded IC50 for `Cc1ccc(N(C)c2ccc3c(c2)OCC[C@H]3CNc2cnccc2C(=O)O)cc1` .
### Response 1 to 10 µM

====

Multi-source literature compilation: pIC50 on Lysine-specific demethylase 6B (Homo sapiens, UniProt O15054).
pIC50: −log10 of the molar value.

### Prompt What is its pIC50 for Lysine-specific demethylase 6B (Homo sapiens, UniProt O15054)? Entry: `CN(C)CCNCc1ccnc(CNCC(=O)N(C)C)c1`
### Response < 5.60

### Prompt What is its pIC50 for Lysine-specific demethylase 6B (Homo sapiens, UniProt O15054)? Entry: `CN(C)C/C=C/CNCc1cc(C=O)ccn1`
### Response < 5.60

### Prompt What is its pIC50 for Lysine-specific demethylase 6B (Homo sapiens, UniProt O15054)? Entry: `CCN(CC)CCCCNCc1cc(CNC(=O)C(F)(F)F)ccn1`
### Response < 5.60

### Prompt What is its pIC50 for Lysine-specific demethylase 6B (Homo sapiens, UniProt O15054)? Entry: `COCc1ccc(N(C)c2ccc3c(c2)CCC[C@H]3CNc2cnccc2C(=O)O)cc1`
### Response 5.00 to 6.00

### Prompt What is its pIC50 for Lysine-specific demethylase 6B (Homo sapiens, UniProt O15054)? Entry: `CCN(CCN(C)C)C(=O)CNCc1cc(CNC(=O)C(F)(F)F)ccn1`
### Response < 5.60

### Prompt What is its pIC50 for Lysine-specific demethylase 6B (Homo sapiens, UniProt O15054)? Entry: `C#Cc1ccc(N(C)c2ccc3c(c2)OCC[C@H]3CNc2cnccc2C(=O)O)cc1`
### Response 5.00 to 6.00

### Prompt What is its pIC50 for Lysine-specific demethylase 6B (Homo sapiens, UniProt O15054)? Entry: `CN(C)C(=O)CNCc1cc(CNCCF)ccn1`
### Response < 5.60

### Prompt What is its pIC50 for Lysine-specific demethylase 6B (Homo sapiens, UniProt O15054)? Entry: `CN(C)CCCCCNCc1cc(/C=N/C2CC2)ccn1`
### Response < 5.60

### Prompt What is its pIC50 for Lysine-specific demethylase 6B (Homo sapiens, UniProt O15054)? Entry: `CN(C)CCNCc1ccnc(CNCCCN(C)Cc2ccccc2)c1`
### Response < 5.60

### Prompt What is its pIC50 for Lysine-specific demethylase 6B (Homo sapiens, UniProt O15054)? Entry: `c1ccc(CN2CCC[C@H]2CNCc2cc(CNCC3CC3)ccn2)cc1`
### Response < 5.60

### Prompt What is its pIC50 for Lysine-specific demethylase 6B (Homo sapiens, UniProt O15054)? Entry: O=Cc1ccnc(CNCC(=O)NC2CCN(Cc3ccccc3)C2)c1 (stereo not drawn)
### Response < 5.60

### Prompt What is its pIC50 for Lysine-specific demethylase 6B (Homo sapiens, UniProt O15054)? Entry: `O=Cc1ccnc(CNCC(=O)N2CCC[C@@H]2CN2CCCC2)c1`
### Response < 5.60

### Prompt What is its pIC50 for Lysine-specific demethylase 6B (Homo sapiens, UniProt O15054)? Entry: `CCCCN(C)C(=O)CNCc1cc(C(=O)O)ccn1`
### Response ≤ 6.00

### Prompt What is its pIC50 for Lysine-specific demethylase 6B (Homo sapiens, UniProt O15054)? Entry: `O=C(O)c1ccnc(CNCC(=O)N2CCCC2)c1`
### Response ≤ 6.00

### Prompt What is its pIC50 for Lysine-specific demethylase 6B (Homo sapiens, UniProt O15054)? Entry: CN(C)CC1CCC(CNCc2cc(/C=N/C3CC3)ccn2)CC1 (stereo not drawn)
### Response < 5.60

### Prompt What is its pIC50 for Lysine-specific demethylase 6B (Homo sapiens, UniProt O15054)? Entry: `CCSCCNCc1cc(/C=N/C2CC2)ccn1`
### Response < 5.60

### Prompt What is its pIC50 for Lysine-specific demethylase 6B (Homo sapiens, UniProt O15054)? Entry: `CN(c1ccc(-n2ccnc2)cc1)c1ccc2c(c1)OCC[C@H]2CNc1cnccc1C(=O)O`
### Response 5.00 to 6.00

### Prompt What is its pIC50 for Lysine-specific demethylase 6B (Homo sapiens, UniProt O15054)? Entry: `CCN(CC)CCCCNCc1cc(C=O)ccn1`
### Response < 5.60

### Prompt What is its pIC50 for Lysine-specific demethylase 6B (Homo sapiens, UniProt O15054)? Entry: O=C(O)c1ccncc1NCC1CCOc2cc(N3CCc4ccccc43)ccc21 (stereo not drawn)
### Response 5.00 to 6.00

### Prompt What is its pIC50 for Lysine-specific demethylase 6B (Homo sapiens, UniProt O15054)? Entry: `O=C(O)c1ccncc1NC[C@H]1CCOc2cc(Sc3ccc(F)cc3)ccc21`
### Response 6.00 to 7.00

### Prompt What is its pIC50 for Lysine-specific demethylase 6B (Homo sapiens, UniProt O15054)? Entry: `O=C(O)c1ccncc1NC[C@H]1CCOc2cc(Sc3cccc(F)c3)ccc21`
### Response 6.00 to 7.00

### Prompt What is its pIC50 for Lysine-specific demethylase 6B (Homo sapiens, UniProt O15054)? Entry: `CN(c1ccc(Cl)cc1)c1ccc2c(c1)OCC[C@H]2CNc1cnccc1C(=O)O`
### Response 5.00 to 6.00

### Prompt What is its pIC50 for Lysine-specific demethylase 6B (Homo sapiens, UniProt O15054)? Entry: `CN(c1ccc(C2CC2)cc1)c1ccc2c(c1)OCC[C@H]2CNc1cnccc1C(=O)O`
### Response 5.00 to 6.00

### Prompt What is its pIC50 for Lysine-specific demethylase 6B (Homo sapiens, UniProt O15054)? Entry: `Cc1ccc(N(C)c2ccc3c(c2)CCC[C@H]3CNc2cnccc2C(=O)O)cc1`
### Response 5.00 to 6.00

### Prompt What is its pIC50 for Lysine-specific demethylase 6B (Homo sapiens, UniProt O15054)? Entry: `COCCNCc1ccnc(CNCCCN(C)Cc2ccccc2)c1`
### Response < 5.60

### Prompt What is its pIC50 for Lysine-specific demethylase 6B (Homo sapiens, UniProt O15054)? Entry: `CCN(CCN(C)C)C(=O)CNCc1cc(C(=O)O)ccn1`
### Response ≤ 6.00

### Prompt What is its pIC50 for Lysine-specific demethylase 6B (Homo sapiens, UniProt O15054)? Entry: `CN(C)CCCCNCc1cc(C=O)ccn1`
### Response < 5.60

### Prompt What is its pIC50 for Lysine-specific demethylase 6B (Homo sapiens, UniProt O15054)? Entry: `CN(c1ccc(C2CCOCC2)cc1)c1ccc2c(c1)OCC[C@H]2CNc1cnccc1C(=O)O`
### Response 5.00 to 6.00

### Prompt What is its pIC50 for Lysine-specific demethylase 6B (Homo sapiens, UniProt O15054)? Entry: `CCN(CC)C(=O)CNCc1cc(C=O)ccn1`
### Response < 5.60

### Prompt What is its pIC50 for Lysine-specific demethylase 6B (Homo sapiens, UniProt O15054)? Entry: `CCN(CCC#N)C(=O)CNCc1cc(/C=N/C2CC2)ccn1`
### Response < 5.60

### Prompt What is its pIC50 for Lysine-specific demethylase 6B (Homo sapiens, UniProt O15054)? Entry: `O=C(O)c1ccncc1NC[C@@H]1CCOc2cc(Sc3ccc(F)cc3)ccc21`
### Response 5.00 to 6.00

### Prompt What is its pIC50 for Lysine-specific demethylase 6B (Homo sapiens, UniProt O15054)? Entry: `Cc1ccc(N(C)c2ccc3c(c2)OCC[C@H]3CNc2cnccc2C(=O)O)nc1`
### Response 5.00 to 6.00

### Prompt What is its pIC50 for Lysine-specific demethylase 6B (Homo sapiens, UniProt O15054)? Entry: `CN(C)CCCCNCc1cc(CNC2CC2)ccn1`
### Response < 5.60

### Prompt What is its pIC50 for Lysine-specific demethylase 6B (Homo sapiens, UniProt O15054)? Entry: `CCN(CC)CCCCNCc1cc(/C=N/CCOC)ccn1`
### Response < 5.60

### Prompt What is its pIC50 for Lysine-specific demethylase 6B (Homo sapiens, UniProt O15054)? Entry: `O=C(O)c1ccncc1NC[C@@H]1CCOc2cc(-c3ccsc3)ccc21`
### Response 5.00 to 6.00

### Prompt What is its pIC50 for Lysine-specific demethylase 6B (Homo sapiens, UniProt O15054)? Entry: CC(C#N)NCc1ccnc(CNCCCN(C)C)c1 (stereo not drawn)
### Response < 5.60

### Prompt What is its pIC50 for Lysine-specific demethylase 6B (Homo sapiens, UniProt O15054)? Entry: `CN(C)CCCNCc1cc(/C=N/CCN(C)C)ccn1`
### Response < 5.60

### Prompt What is its pIC50 for Lysine-specific demethylase 6B (Homo sapiens, UniProt O15054)? Entry: `CN(c1ccc(OC(F)(F)F)cc1)c1ccc2c(c1)OCC[C@H]2CNc1cnccc1C(=O)O`
### Response 5.00 to 6.00

### Prompt What is its pIC50 for Lysine-specific demethylase 6B (Homo sapiens, UniProt O15054)? Entry: CC1CCCCN1CCCNCc1cc(CNC2CC2)ccn1 (stereo not drawn)
### Response < 5.60
